meta.source: PubChem BioAssay (NCATS)

# PROTOCOL: qHTS Assay for Lipid Storage Modulators (AID 1519)
# CONDITION SUMMARY: Drosophila S3 cells, BODIPY lipid droplet/cell ratio, laser cytometry; measured here: cell count channel max response; cells loaded with oleic acid
Results filed as inconclusive are left out.
MEASUREMENT LABEL: max response

Task: Report max response for `OC[C@@H]1O[C@@H](n2cnc3c(N[C@H]4CCC[C@@H]4O)ncnc32)[C@H](O)[C@H]1O` please.
Output: -18.9%

Task: Report max response for `CCCCCCCCCCCCC/C=C\[C@@H](O)[C@H](CO)NC(C)=O` please.
Output: 9.95%

Task: Report max response for `COC(=O)[C@H]1[C@@H]2C[C@H]3c4[nH]c5ccccc5c4CCN3C[C@@H]2CC[C@@H]1O` please.
Output: -3.24%

Task: Report max response for `O=C1c2ccc(O)c(O)c2C(=O)c2c(O)ccc(O)c21` please.
Output: -10.7%

Task: Report max response for `c1ncc(CC2CCNCC2)[nH]1` please.
Output: -18.2%

Task: Report max response for `N[C@@H](C(=O)O)c1ccc(C(=O)O)cc1` please.
Output: 10.8%

Task: Report max response for `N[C@@H](CCCP(=O)(O)O)C(=O)O` please.
Output: 15.6%

Task: Report max response for `CC[N+](C)(CC)CC(=O)Nc1c(C)cccc1C` please.
Output: -9.49%

Task: Report max response for `S=C(S)O[C@@H]1C[C@@H]2C[C@H]1[C@@H]1CCC[C@H]21` please.
Output: 8.79%
